Origin of measurements: PubChem BioAssay (NCI)

Test system: NCI-H322M lung
experimental protocol: NCI-60 one-dose screen, 48 h (100 = growth as untreated, 0 = no growth, -100 = all killed)
condition context: 10 µM unless noted
The panel holds about 83,000 compounds, 20% with a hit somewhere; the sample as a whole holds those more often.
quantity kind: growth (%)
State the answer as a number, implicitly in %.

- O=C(Nc1ccccc1[N+](=O)[O-])c1ccc(Cl)c(Cl)c1: 101

Entry `O=c1nc(-c2ccccc2)c2cc(-c3ccc(C(F)(F)F)nc3)ccc2[nH]1` has what growth?
92.9

Entry CC(=O)ON1CCCC(P(=O)(OCCSC(=O)C(C)(C)C)OCCSC(=O)C(C)(C)C)C1=O (configuration not stated) has what growth?
46.1

###

Tested on: SF-268 CNS
experimental protocol: NCI-60 one-dose screen, 48 h (100 = growth as untreated, 0 = no growth, -100 = all killed)
condition context: 10 µM unless noted
Compounds without any hit were thinned out: in the full panel of roughly 83,000, 20% have a hit.
quantity kind: growth (%)
State the answer as a number, implicitly in %.

Entry `CC(=O)Oc1ccc(OC(C)=O)c2ccccc12` has what growth?
87.5

###

System: NCI-H460 lung
experimental protocol: NCI-60 one-dose screen, 48 h (100 = growth as untreated, 0 = no growth, -100 = all killed)
condition context: 10 µM unless noted
The panel holds about 83,000 compounds, 20% with a hit somewhere; the sample as a whole holds those more often.
quantity kind: growth (%)
State the answer as a number, implicitly in %.

- CCc1ccc(CCC(=O)Nc2ncc(Cc3cc(Cl)ccc3Cl)s2)o1: 10.3
- C=C1C(=O)O[C@H]2[C@H]1CC/C(COC(=O)/C=C\C(=O)NCc1ccc(Cn3c(=O)sn(CCCl)c3=O)cc1)=C\CC[C@@]1(C)O[C@@H]21: 101
- C=CCN1C(=O)c2cccc3c(N4CCOCC4)ccc(c23)C1=O: 8.52

Please state recorded growth (tested on NCI-H460 lung) of `Cc1ccc(-c2nc(SCc3nc4cc(Cl)c(Cl)cc4[nH]3)[nH]c(=O)c2C#N)cc1`
112

Please state recorded growth (tested on NCI-H460 lung) of `C/C(=N\O)[C@@H]1CC[C@]2(CO)CC[C@]3(C)[C@H](CC[C@@H]4[C@@]5(C)CCCNC(C)(C)[C@@H]5CC[C@]43C)[C@@H]12`
72.6

Please state recorded growth (tested on NCI-H460 lung) of `CC1(C)CC(=O)c2c(nn(-c3ccc(Br)cc3)c2-c2cn(-c3ccccc3)nc2-c2cccnc2)C1`
97.5

###

Tested on: NCI-H23 lung
experimental protocol: NCI-60 one-dose screen, 48 h
condition context: 10 µM unless noted
About 83,000 compounds went through this panel and 20% of them were active in at least one assay; those are over-represented in the sample as a whole. Active and inactive are the calls of the source. Rule for the calls: active = growth percent below 10; inactive = the rest.
Tick one outcome: active, inactive

// known answers, use as guide
• C[C@H](C(=O)N(CCc1ccc(Cl)c(Cl)c1)Cc1cncs1)[C@@H]1CC[C@H](C[C@H](C)n2cc(CN3CCC(c4ccc(Cl)cc4)CC3)nn2)O1 = inactive
• O=c1c2c3c(sc2n2c(-c4cc(-c5ccccc5)no4)nnc2n1Cc1ccccc1)CCCC3 = inactive

How was `O=C1c2ccccc2C(=O)C1c1ccc(Br)cc1` classified in this test?
inactive

How was `O=C(CCCCCCN1CC(=O)N2[C@H](c3ccc(Br)cc3)c3[nH]c4ccccc4c3C[C@@H]2C1=O)NO` classified in this test?
inactive

How was `O=C(CCCCCCN1CC(=O)N2[C@H](c3ccc(Cl)cc3)c3[nH]c4ccccc4c3C[C@@H]2C1=O)NO` classified in this test?
inactive

How was `CCS/C(Nc1ccccc1)=C(\C#N)C(=O)Nc1ccc(OC)cc1` classified in this test?
inactive
